Reported % structure calculated from CD spectra, beta-sheet by item:
protocolText: Circular dichroic measurements
Format: physicochemical
assaySetup: 40% CF3CH2OH (trifluoroethanol)
Where no end group is shown, it is not given here.
propertyName: % structure calculated from CD spectra, beta-sheet (%)

- substance: "Ac-GIGKFLHAAKKFAKAFVAEIMNS-NH2 [analogue C]"
  unitSymbol: "%"
  quantitativeResult: 14
- substance: "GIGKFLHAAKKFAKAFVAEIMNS-NH2 [analogue B]"
  unitSymbol: "%"
  quantitativeResult: 9
- substance: "GIGKFLHSAGKFGKAFVGEIMKS [Magainin 1, reference compound]"
  unitSymbol: "%"
  quantitativeResult: 37
- substance: "GIGKFLHSAKKFAKAFVAEIMNS-NH2 [analogue F]"
  unitSymbol: "%"
  quantitativeResult: 6

* * *

Test system: Staphylococcus aureus (ATCC 29213) beta-lactamase(+)
protocolText: Antimicrobial assay, macrodilution broth
Assay type: cell-based
assaySetup: Staphylococcus aureus (29213) beta-lactamase(+); 50% inhibition of growth
Where no end group is shown, it is not given here.
propertyName: 50% Minimal inhibitory concentration

- substance: "GIGKFLHSAKKFAKAFVAEIMNS-NH2 [analogue F]"
  propertyName: "50% Minimal inhibitory concentration"
  result: "5 µg/mL"
- substance: "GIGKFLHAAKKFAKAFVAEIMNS-NH2 [analogue B]"
  propertyName: "50% Minimal inhibitory concentration"
  result: "5 µg/mL"
- substance: "Ac-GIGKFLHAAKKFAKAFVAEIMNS-NH2 [analogue C]"
  propertyName: "50% Minimal inhibitory concentration"
  result: "7.5 µg/mL"
- substance: "GIGKFLHSAGKFGKAFVGEIMKS [Magainin 1, reference compound]"
  propertyName: "50% Minimal inhibitory concentration"
  result: "500 µg/mL"

* * *

protocolText: Circular dichroic measurements
Assay type: physicochemical
assaySetup: 40% CF3CH2OH (trifluoroethanol)
Where no end group is shown, it is not given here.
propertyName: % structure calculated from CD spectra, alpha-helix

- substance: "Ac-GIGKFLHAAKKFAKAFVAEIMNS-NH2 [analogue C]"
  result: "61%"
- substance: "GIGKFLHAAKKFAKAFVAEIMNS-NH2 [analogue B]"
  result: "61%"
- substance: "GIGKFLHSAKKFAKAFVAEIMNS-NH2 [analogue F]"
  result: "63%"
- substance: "GIGKFLHSAGKFGKAFVGEIMKS [Magainin 1, reference compound]"
  result: "24%"

* * *

protocolText: Circular dichroic measurements
Format: physicochemical
assaySetup: 50 mM K-phosphate, pH7
Where no end group is shown, it is not given here.
propertyName: % structure calculated from CD spectra, beta-sheet (%)

- substance: "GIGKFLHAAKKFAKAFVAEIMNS-NH2 [analogue B]"
  quantitativeResult: 44
- substance: "Ac-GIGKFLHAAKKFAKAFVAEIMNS-NH2 [analogue C]"
  quantitativeResult: 48
- substance: "GIGKFLHSAKKFAKAFVAEIMNS-NH2 [analogue F]"
  quantitativeResult: 46
- substance: "GIGKFLHSAGKFGKAFVGEIMKS [Magainin 1, reference compound]"
  quantitativeResult: 44

* * *

Test system: Staphylococcus aureus (ATCC 25923) beta-lactamase(-)
protocolText: Antimicrobial assay, macrodilution broth
Type: cell-based
assaySetup: Staphylococcus aureus (25923) beta-lactamase(-); complete inhibition of growth
Where no end group is shown, it is not given here.
Reported 100% Minimal inhibitory concentration by item:

- substance: "GIGKFLHSAKKFAKAFVAEIMNS-NH2 [analogue F]"
  assayedTarget: "Staphylococcus aureus (ATCC 25923) beta-lactamase(-)"
  qualifier: "="
  100% Minimal inhibitory concentration (µg/mL): 25
- substance: "Ac-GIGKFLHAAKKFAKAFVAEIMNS-NH2 [analogue C]"
  assayedTarget: "Staphylococcus aureus (ATCC 25923) beta-lactamase(-)"
  qualifier: "="
  100% Minimal inhibitory concentration (µg/mL): 25
- substance: "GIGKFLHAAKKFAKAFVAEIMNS-NH2 [analogue B]"
  assayedTarget: "Staphylococcus aureus (ATCC 25923) beta-lactamase(-)"
  qualifier: "="
  100% Minimal inhibitory concentration (µg/mL): 10
- substance: "GIGKFLHSAGKFGKAFVGEIMKS [Magainin 1, reference compound]"
  assayedTarget: "Staphylococcus aureus (ATCC 25923) beta-lactamase(-)"
  qualifier: ">"
  100% Minimal inhibitory concentration (µg/mL): 500

* * *

System: Pseudomonas aeruginosa (ATCC 27853)
protocolText: Antimicrobial assay, macrodilution broth
Type: cell-based
assaySetup: Pseudomonas aeruginosa (27853); 50% inhibition of growth
Where no end group is shown, it is not given here.
Reported 50% Minimal inhibitory concentration by item:

- substance: "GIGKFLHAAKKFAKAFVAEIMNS-NH2 [analogue B]"
  qualifier: "="
  50% Minimal inhibitory concentration (mg/L): 15
- substance: "Ac-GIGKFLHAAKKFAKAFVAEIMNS-NH2 [analogue C]"
  qualifier: ">"
  50% Minimal inhibitory concentration (mg/L): 100
- substance: "GIGKFLHSAGKFGKAFVGEIMKS [Magainin 1, reference compound]"
  qualifier: "="
  50% Minimal inhibitory concentration (mg/L): 430
- substance: "GIGKFLHSAKKFAKAFVAEIMNS-NH2 [analogue F]"
  qualifier: "="
  50% Minimal inhibitory concentration (mg/L): 25

* * *

System: Streptococcus faecalis (ATCC 29212)
protocolText: Antimicrobial assay, macrodilution broth
Assay type: cell-based
assaySetup: Streptococcus faecalis (29212); complete inhibition of growth
Where no end group is shown, it is not given here.

- substance: "GIGKFLHSAGKFGKAFVGEIMKS [Magainin 1, reference compound]"
  qualifier: ">"
  100% Minimal inhibitory concentration [µg/mL]: 500
- substance: "GIGKFLHSAKKFAKAFVAEIMNS-NH2 [analogue F]"
  qualifier: "="
  100% Minimal inhibitory concentration [µg/mL]: 25
- substance: "Ac-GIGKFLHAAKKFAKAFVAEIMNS-NH2 [analogue C]"
  qualifier: "="
  100% Minimal inhibitory concentration [µg/mL]: 25
- substance: "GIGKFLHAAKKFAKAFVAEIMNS-NH2 [analogue B]"
  qualifier: "="
  100% Minimal inhibitory concentration [µg/mL]: 10

* * *

Reported 100% Minimal inhibitory concentration by item:
Test system: Klebsiella pneumoniae (ATCC 13883)
protocolText: Antimicrobial assay, macrodilution broth
Assay type: cell-based
assaySetup: Klebsiella pneumoniae (13883); complete inhibition of growth
Where no end group is shown, it is not given here.
propertyName: 100% Minimal inhibitory concentration (µg/mL)

- substance: "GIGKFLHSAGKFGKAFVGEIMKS [Magainin 1, reference compound]"
  quantitativeResult: 250
- substance: "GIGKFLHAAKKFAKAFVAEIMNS-NH2 [analogue B]"
  quantitativeResult: 10
- substance: "GIGKFLHSAKKFAKAFVAEIMNS-NH2 [analogue F]"
  quantitativeResult: 25
- substance: "Ac-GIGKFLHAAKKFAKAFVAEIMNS-NH2 [analogue C]"
  quantitativeResult: 100

* * *

Reported 50% Minimal inhibitory concentration by item:
Test system: Klebsiella pneumoniae (ATCC 13883)
protocolText: Antimicrobial assay, macrodilution broth
Type: cell-based
assaySetup: Klebsiella pneumoniae (13883); 50% inhibition of growth
Where no end group is shown, it is not given here.
propertyName: 50% Minimal inhibitory concentration (µg/mL)

- substance: "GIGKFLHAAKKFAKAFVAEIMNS-NH2 [analogue B]"
  unitSymbol: "µg/mL"
  quantitativeResult: 5
- substance: "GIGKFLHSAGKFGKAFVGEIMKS [Magainin 1, reference compound]"
  unitSymbol: "µg/mL"
  quantitativeResult: 100
- substance: "GIGKFLHSAKKFAKAFVAEIMNS-NH2 [analogue F]"
  unitSymbol: "µg/mL"
  quantitativeResult: 5
- substance: "Ac-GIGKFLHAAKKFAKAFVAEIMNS-NH2 [analogue C]"
  unitSymbol: "µg/mL"
  quantitativeResult: 60

* * *

Test system: Escherichia coli (ATCC 25922)
protocolText: Antimicrobial assay, macrodilution broth
Format: cell-based
assaySetup: Escherichia coli (25922); 50% inhibition of growth
Where no end group is shown, it is not given here.
Reported 50% Minimal inhibitory concentration by item:
propertyName: 50% Minimal inhibitory concentration (µg/mL)

- substance: "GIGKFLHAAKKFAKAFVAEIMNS-NH2 [analogue B]"
  assayedTarget: "Escherichia coli (ATCC 25922)"
  quantitativeResult: 1.2
- substance: "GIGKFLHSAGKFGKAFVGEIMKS [Magainin 1, reference compound]"
  assayedTarget: "Escherichia coli (ATCC 25922)"
  quantitativeResult: 100
- substance: "Ac-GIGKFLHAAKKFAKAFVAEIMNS-NH2 [analogue C]"
  assayedTarget: "Escherichia coli (ATCC 25922)"
  quantitativeResult: 10
- substance: "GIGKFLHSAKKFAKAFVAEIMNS-NH2 [analogue F]"
  assayedTarget: "Escherichia coli (ATCC 25922)"
  quantitativeResult: 1.2

Values from patent US5221732A
